Biological target: CDK6/Cyclin D1 (Homo sapiens, UniProt Q00534)
Sequence (Q00534 whole entry): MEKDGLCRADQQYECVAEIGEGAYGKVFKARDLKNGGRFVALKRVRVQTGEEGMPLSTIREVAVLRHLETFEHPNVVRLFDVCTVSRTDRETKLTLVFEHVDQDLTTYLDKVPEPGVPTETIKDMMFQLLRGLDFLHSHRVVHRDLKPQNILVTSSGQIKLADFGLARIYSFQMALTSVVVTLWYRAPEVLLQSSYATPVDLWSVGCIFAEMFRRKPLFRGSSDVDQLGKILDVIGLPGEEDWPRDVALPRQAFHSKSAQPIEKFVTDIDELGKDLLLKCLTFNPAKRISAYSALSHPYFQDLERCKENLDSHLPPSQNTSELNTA
Sequence (P24385 whole entry partner): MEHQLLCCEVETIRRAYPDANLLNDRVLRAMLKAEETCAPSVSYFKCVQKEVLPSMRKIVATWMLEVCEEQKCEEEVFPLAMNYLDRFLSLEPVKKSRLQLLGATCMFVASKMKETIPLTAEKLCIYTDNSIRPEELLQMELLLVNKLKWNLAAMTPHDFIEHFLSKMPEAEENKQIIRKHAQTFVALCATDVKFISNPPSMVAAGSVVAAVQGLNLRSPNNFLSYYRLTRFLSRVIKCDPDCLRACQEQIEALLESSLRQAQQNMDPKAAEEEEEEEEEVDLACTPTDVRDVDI
Assay: CDK6/Cyclin D1 in vitro kinase inhibition (Biological Example 1 of WO2022/111621)
Please provide measured IC50 for the entries that follow.

[2H]C([2H])([2H])NS(=O)(=O)c1ccc(Nc2ncc(C(F)(F)F)c(O[C@H]3CCOC[C@H]3O)n2)cc1 [Compound E2] = ≥ 1000 nM
[2H]C([2H])([2H])NS(=O)(=O)c1ccc(Nc2ncc(C(F)(F)F)c(O[C@@H]3CCOC[C@H]3O)n2)cc1 = ≥ 1000 nM

Just so you know, measured IC50 for [2H]C([2H])([2H])NS(=O)(=O)c1ccc(Nc2ncc(C(F)(F)F)c(O[C@H]3CCOC[C@@H]3O)n2)cc1 came out at ≥ 1000 nM

* * *

Molecular target: CDK4/Cyclin D1 (Homo sapiens, UniProt P11802)
Sequence (P11802 whole entry): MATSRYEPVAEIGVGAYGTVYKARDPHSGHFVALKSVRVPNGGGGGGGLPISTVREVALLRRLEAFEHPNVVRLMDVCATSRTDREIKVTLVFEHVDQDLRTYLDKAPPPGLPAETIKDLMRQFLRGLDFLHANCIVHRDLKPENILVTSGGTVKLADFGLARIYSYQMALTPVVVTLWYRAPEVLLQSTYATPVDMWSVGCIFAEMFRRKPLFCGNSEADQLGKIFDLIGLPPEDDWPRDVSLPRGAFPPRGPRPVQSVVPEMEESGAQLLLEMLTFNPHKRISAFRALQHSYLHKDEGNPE
Sequence (P24385 whole entry partner): as the sequence (P24385 whole entry partner) above
Assay: CDK4/Cyclin D1 in vitro kinase inhibition (Biological Example 1 of WO2022/111621)
endpointLabel: IC50

[2H]C([2H])([2H])NS(=O)(=O)c1ccc(Nc2ncc(C(F)(F)F)c(O[C@H]3CCOC[C@H]3O)n2)cc1 [Compound E2] = ≥ 1000 nM

Just so you know, measured IC50 for [2H]C([2H])([2H])NS(=O)(=O)c1ccc(Nc2ncc(C(F)(F)F)c(O[C@H]3CCOC[C@@H]3O)n2)cc1 came out at ≥ 1000 nM
